Would you kindly list 8OG:A repair function score for each of these variants?
B1: library; numbered along this chain (parent)
chain: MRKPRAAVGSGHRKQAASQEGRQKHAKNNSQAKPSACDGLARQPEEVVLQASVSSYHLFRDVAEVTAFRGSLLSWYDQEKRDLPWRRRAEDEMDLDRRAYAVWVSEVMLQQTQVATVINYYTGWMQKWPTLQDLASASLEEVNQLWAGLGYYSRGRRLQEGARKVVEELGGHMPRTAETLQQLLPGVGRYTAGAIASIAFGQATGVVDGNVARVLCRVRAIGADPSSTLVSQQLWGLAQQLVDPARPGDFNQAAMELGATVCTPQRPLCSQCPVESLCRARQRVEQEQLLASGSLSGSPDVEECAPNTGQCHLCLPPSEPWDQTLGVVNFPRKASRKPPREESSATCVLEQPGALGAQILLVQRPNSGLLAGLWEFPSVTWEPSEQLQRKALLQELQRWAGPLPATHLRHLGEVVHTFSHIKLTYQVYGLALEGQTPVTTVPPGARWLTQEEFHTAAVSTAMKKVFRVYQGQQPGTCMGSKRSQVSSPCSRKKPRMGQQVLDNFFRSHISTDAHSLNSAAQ

Variants of: B1
Assay: 8OG:A repair function score (normalized; synonymous = 0, nonsense = -1) (normalized log-likelihood score); higher = more repair activity (WT-like);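 also: cells sorted at 72 h after reporter transfection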
Conditions: with 8OG:A DNA repair reporter (GFP) in HEK-293 MUTYH KO cells
One number for each entry.

Some solved cases for reference:
T130N
-0.00511
I195P
-1.04
S71K
-0.0254
L396Y
-1.21
C489S
0.0134
G188W
-1.02
L373C
-0.611
P34Q
0.146
S136G
0.03
V379E
-0.777

State the recorded 8OG:A repair function score for every item in the following list.
1. A6Q
2. Q351R
3. M478T
4. G401Y

Output:
[0.0112, 0.0269, -0.0383, -0.393]

For every item below, please supply its 8OG:A repair function score.
1. P442N
2. Y151C
3. A203T
4. K390C

Output:
-0.426
-0.944
0.03
0.0921

Can you give me 8OG:A repair function score for all of these, one by one?
1. I195E
2. P474H
3. N307H
4. N119V

Output:
1. -1.06
2. 0.0269
3. -0.0535
4. 0.0134
